Data provenance is ChEMBL document CHEMBL5260840.

Target Or System: von Hippel-Lindau disease tumor suppressor/Bromodomain-containing protein 7 (Homo sapiens) (UniProt Q9NPI1+P40337)
Sequence (P40337 whole entry, looked up): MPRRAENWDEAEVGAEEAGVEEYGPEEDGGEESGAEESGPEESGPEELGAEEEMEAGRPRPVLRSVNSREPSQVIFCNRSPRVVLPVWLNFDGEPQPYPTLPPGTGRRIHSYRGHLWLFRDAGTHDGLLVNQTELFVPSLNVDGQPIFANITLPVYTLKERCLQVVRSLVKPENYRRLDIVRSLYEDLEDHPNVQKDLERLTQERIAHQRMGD
Sequence (Q9NPI1 whole entry, looked up): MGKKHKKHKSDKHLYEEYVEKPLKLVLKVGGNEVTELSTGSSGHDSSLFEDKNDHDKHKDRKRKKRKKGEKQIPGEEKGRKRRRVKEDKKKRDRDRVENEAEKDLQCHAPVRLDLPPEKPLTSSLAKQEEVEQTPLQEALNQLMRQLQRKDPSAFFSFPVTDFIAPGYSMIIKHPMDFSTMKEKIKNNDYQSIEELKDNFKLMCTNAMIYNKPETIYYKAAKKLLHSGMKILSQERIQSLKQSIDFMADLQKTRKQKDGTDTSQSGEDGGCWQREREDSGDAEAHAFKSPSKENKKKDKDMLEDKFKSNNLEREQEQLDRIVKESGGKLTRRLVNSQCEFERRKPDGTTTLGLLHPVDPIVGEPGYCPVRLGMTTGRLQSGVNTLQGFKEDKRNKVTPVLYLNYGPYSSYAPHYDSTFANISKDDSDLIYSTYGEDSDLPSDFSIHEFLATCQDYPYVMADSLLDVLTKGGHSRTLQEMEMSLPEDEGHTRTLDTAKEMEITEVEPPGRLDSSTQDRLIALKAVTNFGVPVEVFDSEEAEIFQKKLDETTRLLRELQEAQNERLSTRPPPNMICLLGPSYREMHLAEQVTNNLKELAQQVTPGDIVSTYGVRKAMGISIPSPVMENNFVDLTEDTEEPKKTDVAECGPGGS
Method Description: PROTAC activity at VHL/BRD7 in human HeLa cells assessed as remaining BRD7 protein level at 1 uM incubated for 16 hrs by Western blot analysis relative to control
Format: cell-based
Measurement Name: Activity (%)

Consider the following illustrative entries.
Smiles Representation | Recorded Number
COc1cc(-c2cn(C)c(=O)c3cnccc23)cc(OC)c1CN1CCN(CCOCCOCCOCC(=O)N[C@H](C(=O)N2C[C@H](O)C[C@H]2C(=O)NCc2ccc(-c3scnc3C)cc2)C(C)(C)C)CC1 | 106
COc1cc(-c2cn(C)c(=O)c3cnccc23)cc(OC)c1CN1CCN(C(=O)COCCOCCOCN[C@H](C(=O)N2C[C@H](O)C[C@H]2C(=O)NCc2ccc(-c3scnc3C)cc2)C(C)(C)C)CC1 | 113
COc1cc(-c2cn(C)c(=O)c3cnccc23)cc(OC)c1CN1CCN(CCOCCOCCOCCOCCOc2cc(-c3scnc3C)ccc2CNC(=O)[C@@H]2C[C@@H](O)CN2C(=O)[C@@H](NC(=O)C2(F)CC2)C(C)(C)C)CC1 | 163

(P) COc1cc(-c2cn(C)c(=O)c3cnccc23)cc(OC)c1CN1CCN(CCOCCOCCOc2cc(-c3scnc3C)ccc2CNC(=O)[C@@H]2C[C@@H](O)CN2C(=O)[C@@H](NC(=O)C2(F)CC2)C(C)(C)C)CC1
(Q) COc1cc(-c2cn(C)c(=O)c3cnccc23)cc(OC)c1CN1CCN(CCOCCOCCOc2cc(-c3scnc3C)ccc2CNC(=O)[C@@H]2C[C@@H](O)CN2C(=O)[C@@H](NC(=O)C2(C#N)CC2)C(C)(C)C)CC1
Task: Looking at P and Q , which one comes out lower in Activity terms? Reply with the label of the item you choose.
Result: P
(P: 90%, Q: 187%)

* * *

Target Or System: von Hippel-Lindau disease tumor suppressor/Bromodomain-containing protein 9 (Homo sapiens) (UniProt Q9H8M2+P40337)
Sequence (P40337 whole entry, looked up): as the sequence (P40337 whole entry, looked up) above
Sequence (Q9H8M2 whole entry, looked up): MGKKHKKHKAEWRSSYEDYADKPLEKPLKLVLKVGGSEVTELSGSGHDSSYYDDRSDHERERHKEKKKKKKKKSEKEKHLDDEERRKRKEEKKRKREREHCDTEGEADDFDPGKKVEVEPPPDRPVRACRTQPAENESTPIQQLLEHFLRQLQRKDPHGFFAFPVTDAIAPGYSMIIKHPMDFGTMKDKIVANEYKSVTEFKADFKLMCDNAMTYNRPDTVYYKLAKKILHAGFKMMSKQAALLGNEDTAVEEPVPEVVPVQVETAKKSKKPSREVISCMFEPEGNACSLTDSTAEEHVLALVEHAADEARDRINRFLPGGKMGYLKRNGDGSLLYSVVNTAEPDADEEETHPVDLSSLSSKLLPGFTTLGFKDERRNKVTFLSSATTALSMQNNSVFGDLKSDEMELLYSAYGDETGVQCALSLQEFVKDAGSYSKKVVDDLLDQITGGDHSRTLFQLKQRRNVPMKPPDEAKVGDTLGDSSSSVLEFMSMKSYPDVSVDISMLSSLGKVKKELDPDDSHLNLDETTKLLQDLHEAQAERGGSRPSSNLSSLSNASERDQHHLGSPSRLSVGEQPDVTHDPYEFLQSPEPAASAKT
Method Description: PROTAC activity at VHL/BRD9 in human HeLa cells assessed as remaining BRD9 protein level at 1 uM incubated for 16 hrs by Western blot analysis relative to control
Assay type: cell-based
Measurement Name: Activity (%)

Consider the following illustrative entries.
Smiles Representation | Activity / %
COc1cc(-c2cn(C)c(=O)c3cnccc23)cc(OC)c1CN1CCN(CCOCCOCCOCCOCCOCC(=O)N[C@H](C(=O)N2C[C@H](O)C[C@H]2C(=O)NCc2ccc(-c3scnc3C)cc2)C(C)(C)C)CC1 | 112
COc1cc(-c2cn(C)c(=O)c3cnccc23)cc(OC)c1CN1CCN(CCOCCOCC(=O)N[C@H](C(=O)N2C[C@H](O)C[C@H]2C(=O)NCc2ccc(-c3scnc3C)cc2)C(C)(C)C)CC1 | 70
COc1cc(-c2cn(C)c(=O)c3cnccc23)cc(OC)c1CN1CCN(CCOCCOCCOCCOCCOc2cc(-c3scnc3C)ccc2CNC(=O)[C@@H]2C[C@@H](O)CN2C(=O)[C@@H](NC(=O)C2(C#N)CC2)C(C)(C)C)CC1 | 98
COc1cc(-c2cn(C)c(=O)c3cnccc23)cc(OC)c1CN1CCN(CCCCCOCCOCC(=O)N[C@H](C(=O)N2C[C@H](O)C[C@H]2C(=O)NCc2ccc(-c3scnc3C)cc2)C(C)(C)C)CC1 | 61
COc1cc(-c2cn(C)c(=O)c3cnccc23)cc(OC)c1CN1CCN(C(=O)COCCOCCOCN[C@H](C(=O)N2C[C@H](O)C[C@H]2C(=O)NCc2ccc(-c3scnc3C)cc2)C(C)(C)C)CC1 | 73

(P) COc1cc(-c2cn(C)c(=O)c3cnccc23)cc(OC)c1CN1CCN(CCOCCOCCOCCOCCOc2cc(-c3scnc3C)ccc2CNC(=O)[C@@H]2C[C@@H](O)CN2C(=O)[C@@H](NC(=O)C2(F)CC2)C(C)(C)C)CC1
(Q) COc1cc(-c2cn(C)c(=O)c3cnccc23)cc(OC)c1CN1CCN(CCOCCOCCOc2cc(-c3scnc3C)ccc2CNC(=O)[C@@H]2C[C@@H](O)CN2C(=O)[C@@H](NC(C)=O)C(C)(C)C)CC1
(R) COc1cc(-c2cn(C)c(=O)c3cnccc23)cc(OC)c1CN1CCN(CCOCCOCCOc2cc(-c3scnc3C)ccc2CNC(=O)[C@@H]2C[C@@H](O)CN2C(=O)[C@@H](NC(=O)C2(C#N)CC2)C(C)(C)C)CC1
(S) COc1cc(-c2cn(C)c(=O)c3cnccc23)cc(OC)c1CN1CCN(CCOCCOCCOc2cc(-c3scnc3C)ccc2CNC(=O)[C@@H]2C[C@@H](O)CN2C(=O)[C@@H](NC(=O)C2(F)CC2)C(C)(C)C)CC1
Task: Descending sort on Activity required. Provide your answer as the labels ordered per the instruction.
Result: Q, P, R, S
